targetSystem: HDAC1 (Homo sapiens, UniProt Q13547)
Sequence (Q13547 whole entry): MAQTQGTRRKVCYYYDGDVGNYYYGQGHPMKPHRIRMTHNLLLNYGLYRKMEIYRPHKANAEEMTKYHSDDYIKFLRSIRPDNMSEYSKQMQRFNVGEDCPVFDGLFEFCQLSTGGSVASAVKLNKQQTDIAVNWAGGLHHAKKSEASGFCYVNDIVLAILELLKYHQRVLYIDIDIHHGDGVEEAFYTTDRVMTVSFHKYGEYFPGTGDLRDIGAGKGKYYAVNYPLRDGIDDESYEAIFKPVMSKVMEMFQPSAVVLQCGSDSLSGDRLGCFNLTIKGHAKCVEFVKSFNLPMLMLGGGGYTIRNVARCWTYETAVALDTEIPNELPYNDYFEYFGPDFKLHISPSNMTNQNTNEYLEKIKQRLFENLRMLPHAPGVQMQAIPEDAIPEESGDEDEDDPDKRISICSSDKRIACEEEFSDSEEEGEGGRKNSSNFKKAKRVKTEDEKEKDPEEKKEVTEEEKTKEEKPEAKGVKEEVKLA
runDescription: Reporter displacement assay (HDAC1)
Reported Kd values are given for each entry in this list.

lineNotation: Nc1cc(F)c(-c2ccc(F)cc2)cc1NC(=O)N1CCCC1
Kd: > 5 µM

lineNotation: Nc1cc(F)c(-c2ccc(F)cc2)cc1NC(=O)N1Cc2nccnc2C1
Kd: 0.1 to 0.5 µM

lineNotation: Nc1ccc(-c2ccc(F)cc2)c(F)c1NC(=O)N1CCCC1
Kd: 0.1 to 0.5 µM

lineNotation: Nc1cnc(-c2ccc(F)cc2)nc1NC(=O)N1Cc2nccnc2C1
Kd: 0.5 to 5 µM

lineNotation: Nc1cc(F)c(-c2ccc(F)cc2)cc1NC(=O)N1Cc2ccncc2C1
Kd: 0.1 to 0.5 µM
